Target: UniProt:P61823
Sequence (P61823 whole entry): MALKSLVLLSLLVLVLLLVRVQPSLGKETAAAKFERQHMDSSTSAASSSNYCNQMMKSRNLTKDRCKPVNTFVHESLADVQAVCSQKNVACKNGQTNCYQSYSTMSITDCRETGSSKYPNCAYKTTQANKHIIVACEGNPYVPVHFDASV
ENDPOINT_NAME: pKi
Formally, pKi is defined as -log10 of the concentration c, with c in mol/L.

Endpoint output: pKi of Nc1ccn([C@@H]2O[C@H](CO)[C@@H](OP(=O)(O)O)[C@H]2O)c(=O)n1 . Value?
3.99

For the compound shown here, CCOC(=O)C1CCN(C[C@H]2O[C@@H](n3ccc(=O)[nH]c3=O)[C@H](O)[C@@H]2O)CC1 , give the reported pKi.
4.11

What measured pKi goes with O=c1ccn([C@@H]2O[C@H](CO)[C@@H](O)[C@H]2OP(=O)(O)O)c(=O)[nH]1 ?
5.15
